B1: KCNG1 (parent)
chain: AVNLSVSTLPSLREEEEQVRAHAP

variants of: B1; test: protein stability index of a GFP-peptide fusion (GPS, HEK-293T) (PSI 1-6); higher = more stable; details: c terminus: a fixed tail appended;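 also: lentivirally expressed fusions sorted by FACS into six bins by GFP to DsRed ratio, PSI derived from sequencing read proportions per bin multiplied by bin number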
Documented protein stability index across a set of variants
Just the number.

Worked cases, answers included:
chain_sequence="AVNLSVSTLPSLRELEEQVRAHAP [E15L]" reported=3.42
chain_sequence="AVNLSCSTLPSLREEEEQVRAHAP [V6C]" reported=4.75
chain_sequence="AVNLSVSTLPSLREELEQVRAHAP [E16L]" reported=3.82

Could you now look at the following variant, please?
Ask: # lookup: protein stability index of AVNLSVSTHPSLREEEEQVRAHAP [L9H]
Result: 4.81
